Item-by-item account of pKd
Biological target: WT-HMBS (Homo sapiens, UniProt P08397)
Construct: Full-length HMBS was cloned into pET-28a(+)-TEV vector and transformed into BL21 (DE3) cells for expression; 6xHis (N, cleaved yes); TEV protease cleavage site (N, cleaved yes); made in house; host or cells: E. coli BL21 (DE3)
Sequence (P08397 whole entry): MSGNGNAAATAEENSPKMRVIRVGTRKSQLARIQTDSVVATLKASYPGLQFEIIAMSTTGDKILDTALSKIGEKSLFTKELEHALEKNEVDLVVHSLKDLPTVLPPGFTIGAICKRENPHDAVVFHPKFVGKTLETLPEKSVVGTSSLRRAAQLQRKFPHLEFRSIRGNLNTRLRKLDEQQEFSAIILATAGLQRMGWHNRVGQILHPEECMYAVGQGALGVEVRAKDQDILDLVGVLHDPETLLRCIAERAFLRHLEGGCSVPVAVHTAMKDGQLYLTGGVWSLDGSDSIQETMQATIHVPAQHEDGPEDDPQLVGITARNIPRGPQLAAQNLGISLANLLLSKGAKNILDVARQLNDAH
Test: Octet RED96 KD determination (Example 22)
Type: binding
Conditions: Octet RED96, steady state, sigmoidal fitting, 3.1 to 150 μM, PBS-P+ 5% DMSO
Description: Octet RED96 (Forte Bio) was used for screening binding and determining the KD values for certain compounds. In the assay the target protein (WT-HMBS) was biotinylated and coupled as a layer on the optic probe. […] For the analysis method of KD determination, steady state analysis was used in which the response from steady-state of the association phase was used for determining the binding curve for the analyte. KD values were calculated using sigmoidal fitting. […]
Scale: pKd equals -log10([C]), with [C] in mol/L.

* O=Cc1cc(Cc2ccccc2Cl)cc(C(F)(F)F)c1O | 5.03
* O=Cc1cc(Cc2ccccc2Cl)cc([N+](=O)[O-])c1O [drawing 59] | 4.08

Turning now to a further molecule:
So what's the measured pKd for this one? OCc1cc(Cc2ccccc2Cl)cc(C(F)(F)F)c1O [drawing 62]
4.05

Attribution: patent US20230225991A1
